Data credit: patent US20060110456A1

Tested on: marine bacteria (ten strains)
assay procedure: Bio-adhesion assay (crystal violet microplate)
Format: cell-based, marine bacteria isolated from Singapore fouling communities
run parameters: strain 4 (Bacillus); hydrophobic surface (untreated polystyrene); 50 μl of 125 μg ml^−1 drug + 200 μl bacteria, 2 hours
Counter-ions that a name gives are not always drawn.
quantity: Effect of drugs on adhesion of bacteria

>>> reported_value("CN[C@H]1CC[C@@H](c2ccc(Cl)c(Cl)c2)c2ccccc21.Cl [ZLT, sertraline hydrochloride]")
"*** (*** p < 0.005)"
>>> reported_value("CN1CCN(CCCN2c3ccccc3Sc3ccc(C(F)(F)F)cc32)CC1 [TFZ, Trifluoperazine hydrochloride]")
"*** (*** p < 0.005)"
